- Tested on: CCRIS mutagenicity, Ames/micronucleus/aberration tests
- ASSAY TEXT: CCRIS mutagenicity studies
- MEASUREMENT CONDITIONS: Test System: AMES SALMONELLA TYPHIMURIUM; Strain/Indicator: TA100; Metabolic Activation: NONE; Method: STANDARD PLATE
Calls of active or inactive are those of the source. The rule behind the calls is not given here.
Outcome field: choose from class 1 for active, class 0 for inactive

These recorded examples may help you get a feel for the data.
• O=[N+]([O-])c1ccc2c3c(c(O)ccc13)-c1ccccc1-2 = class 0
• O=[N+]([O-])c1ccc(OCC2CO2)cc1 (centres undefined) = class 1
• CCOC(=O)CBr = class 0
• Oc1ccc2c(ccc3[nH]c4ccc5ccccc5c4c32)c1 = class 0
• ClCBr = class 1
• COC1=CC(=O)C(=O)C(C(C)(C)C)=C1 = class 0
• Nc1snc2cc(Cl)ccc12 = class 0
• O=[N+]([O-])C1=Cc2c3c1cccc3cc1ccc3ccccc3c21 = class 0
• CCCCOO = class 0
• O=NN(CC(=O)O)CC1(O)OCC(O)C(O)C1O (centres undefined) = class 0

Query compound follows.
Incoming: Dear colleague, could you share the recorded outcome for Brc1ccc2c(c1)[C@@H]1O[C@@H]1[C@H]1CCCC[C@H]21 when you have a moment?
Outgoing: class 0

---

- Tested on: CCRIS mutagenicity, Ames/micronucleus/aberration tests
- ASSAY TEXT: CCRIS mutagenicity studies
- MEASUREMENT CONDITIONS: Test System: AMES SALMONELLA TYPHIMURIUM; Strain/Indicator: TA100; Metabolic Activation: NONE; Method: STANDARD PLATE
- Text: The CCRIS database contains chemical records with carcinogenicity, mutagenicity, tumor promotion, and tumor inhibition test results. It was developed by the National Cancer Institute (NCI). Data are derived from studies cited in primary journals, current awareness tools, NCI reports, and other sources. Test results have been reviewed by experts in carcinogenesis and mutagenesis. CCRIS provides historical information from the years 1985 - 2011. It is no longer updated. […]
Calls of active or inactive are those of the source. No rule for the calls is given here.
VALUE KIND: mutagenic call

A selection of reference data follows.
- CS(=O)(=O)O: inactive; negative
- C=CC(=O)OCC(C)(C)C: inactive; negative
- CCOc1ccc(N=O)cc1: active; positive
- CCc1cc(-c2ccccc2)cc(CC)c1N: inactive; negative

# per-item lookup of mutagenic call; items listed below
1. O=C1O[C@@H]2[C@@H](O)CO[C@]2(O)[C@@]1(O)Cc1c[nH]c2ccccc12
2. Cc1cc(N)cc(C)c1N
3. N#CC(Br)Br
4. CC(C)c1c(N)ccc2ccccc12
5. ClCCCl

Outgoing:
1. inactive; negative
2. inactive; negative
3. inactive; negative
4. inactive; negative
5. active; positive

---

- System: CCRIS mutagenicity, Ames/micronucleus/aberration tests
- ASSAY TEXT: CCRIS mutagenicity studies
- MEASUREMENT CONDITIONS: Test System: AMES SALMONELLA TYPHIMURIUM; Strain/Indicator: TA1535; Metabolic Activation: RAT, LIVER, S-9; Method: STANDARD PLATE
Calls of active or inactive are those of the source. No rule for the calls is given here.
Outcome field: choose from true = active, false = inactive

These recorded examples may help you get a feel for the data.
• CN(C)c1ccc(C(=O)c2ccc(N(C)C)cc2)cc1 = false
• COc1ccc(N)cc1 = false
• Cc1ncc2c(n1)CCC2 = false
• ClCCCl = true
• CCC1(CC(=O)O)OCCc2c1[nH]c1c(C)cccc21 (centres undefined) = false

Incoming: Dear colleague, could you share the recorded outcome for CN(C)c1ccc(C(=C2C=CC(=[N+](C)C)C=C2)c2ccccc2)cc1 when you have a moment?
Outgoing: false

Incoming: Dear colleague, could you share the recorded outcome for [O]=[Cr](=[O])([OH])[O][Cr](=[O])(=[O])[OH] when you have a moment?
Outgoing: false

Incoming: Dear colleague, could you share the recorded outcome for Nc1cccc2c(N)cccc12 when you have a moment?
Outgoing: false

Incoming: Dear colleague, could you share the recorded outcome for Nc1ccc(Cl)c(N)c1 when you have a moment?
Outgoing: false

---

- Tested on: CCRIS mutagenicity, Ames/micronucleus/aberration tests
- ASSAY TEXT: CCRIS mutagenicity studies
- MEASUREMENT CONDITIONS: Test System: AMES SALMONELLA TYPHIMURIUM; Strain/Indicator: TA98; Metabolic Activation: RAT, LIVER, S-9; Method: PREINCUBATION
- Excerpt: The CCRIS database contains chemical records with carcinogenicity, mutagenicity, tumor promotion, and tumor inhibition test results. It was developed by the National Cancer Institute (NCI). Data are derived from studies cited in primary journals, current awareness tools, NCI reports, and other sources. Test results have been reviewed by experts in carcinogenesis and mutagenesis. CCRIS provides historical information from the years 1985 - 2011. It is no longer updated. […]
Calls of active or inactive are those of the source. No rule for the calls is given here.
Outcome field: choose from active, inactive

These recorded examples may help you get a feel for the data.
- c1ccc(Cn2ccnc2)cc1: inactive
- CC(=O)OCc1c(O)c(C(=O)O)c(C)c2c1OC(=O)c1c(C)cc(O)c(C=O)c1O2: inactive
- CC(C)(S)C(=O)N[C@@H](CS)C(=O)O: inactive
- O=C(O)C(F)(F)C(F)(Cl)C(F)(F)C(F)(Cl)C(F)(F)C(F)(Cl)C(F)(F)Cl (stereo not given): inactive

Query compound follows.
Incoming: Dear colleague, could you share the recorded outcome for O=[N+]([O-])c1cc2c3ccccc3ccc2c2ccccc12 when you have a moment?
Outgoing: active

---

- System: CCRIS mutagenicity, Ames/micronucleus/aberration tests
- ASSAY TEXT: CCRIS mutagenicity studies
- MEASUREMENT CONDITIONS: Test System: CHINESE HAMSTER V-79; Strain/Indicator: V-79/6-THIOGUANINE; Metabolic Activation: NONE; Method: SUSPENSION/PLATE
The source made the active and inactive calls. How the calls were made is not given here.
Outcome field: choose from class 1 for active, class 0 for inactive

Incoming: Dear colleague, could you share the recorded outcome for Cc1ccc(N)cc1N when you have a moment?
Outgoing: class 0

Incoming: Dear colleague, could you share the recorded outcome for Nc1ccc2ccccc2c1 when you have a moment?
Outgoing: class 0

Incoming: Dear colleague, could you share the recorded outcome for CCN(CC)c1ccc2c(-c3ccccc3C(=O)O)c3ccc(=[N+](CC)CC)cc-3oc2c1 when you have a moment?
Outgoing: class 0

Incoming: Dear colleague, could you share the recorded outcome for Oc1c(Cl)c(Cl)c(O)c(Cl)c1Cl when you have a moment?
Outgoing: class 1

Incoming: Dear colleague, could you share the recorded outcome for S=c1nc[nH]c2nc[nH]c12 when you have a moment?
Outgoing: class 1

---

- System: CCRIS mutagenicity, Ames/micronucleus/aberration tests
- ASSAY TEXT: CCRIS mutagenicity studies
- MEASUREMENT CONDITIONS: Test System: Ames Salmonella typhimurium; Strain/Indicator: TA100; Metabolic Activation: Rat, Liver, S9, Sodium phenobarbital and 5,6-benzoflavone (10%); Method: Preincubation
- From the text: The CCRIS database contains chemical records with carcinogenicity, mutagenicity, tumor promotion, and tumor inhibition test results. It was developed by the National Cancer Institute (NCI). Data are derived from studies cited in primary journals, current awareness tools, NCI reports, and other sources. Test results have been reviewed by experts in carcinogenesis and mutagenesis. CCRIS provides historical information from the years 1985 - 2011. It is no longer updated. […]
Activity calls are given as the source filed them. The rule behind the calls is not given here.
VALUE KIND: mutagenic call

A selection of reference data follows.
* C=CC(=O)OCCO | inactive; negative
* NCCS | inactive; negative
* Nc1cccc(N)c1 | inactive; negative
* ClCCCl | inactive; negative

Consider now this further compound.
Incoming: Which mutagenic call reading was recorded for the compound OCc1c2ccccc2cc2ccccc12 ?
Outgoing: inactive; negative

---

- Test system: CCRIS mutagenicity, Ames/micronucleus/aberration tests
- ASSAY TEXT: CCRIS mutagenicity studies
- MEASUREMENT CONDITIONS: Test System: AMES SALMONELLA TYPHIMURIUM; Strain/Indicator: TA1537; Metabolic Activation: RAT LIVER S-9, PHENOBARBITAL AND BETA-NAPHTHOFLAVONE; Method: PREINCUBATION
Active and inactive are the calls of the source. No rule for the calls is given here.
Outcome field: choose from active, inactive

These recorded examples may help you get a feel for the data.
* [O-][Cl+3]([O-])([O-])O | inactive
* Clc1ccc(C(Cl)(Cl)Cl)cc1 | active
* Cc1ccc(N)cc1N | active

Incoming: Dear colleague, could you share the recorded outcome for COc1ccccc1[N+](=O)[O-] when you have a moment?
Outgoing: inactive

Incoming: Dear colleague, could you share the recorded outcome for C=C1CC(=O)O1 when you have a moment?
Outgoing: inactive

---

- Tested on: CCRIS mutagenicity, Ames/micronucleus/aberration tests
- ASSAY TEXT: CCRIS mutagenicity studies
- MEASUREMENT CONDITIONS: Test System: AMES SALMONELLA TYPHIMURIUM; Strain/Indicator: TA98; Metabolic Activation: RAT, LIVER, S-9, AROCLOR 1254; Method: STANDARD PLATE
Calls of active or inactive are those of the source. How the calls were made is not given here.
Outcome field: choose from TRUE (active), FALSE (inactive)

* O=S(=O)(O)c1c(N=Nc2c(O)ccc3ccccc23)ccc2ccccc12 | FALSE

Incoming: Dear colleague, could you share the recorded outcome for O=C1c2c(O)ccc([N+](=O)[O-])c2C(=O)c2c([N+](=O)[O-])ccc(O)c21 when you have a moment?
Outgoing: TRUE

Incoming: Dear colleague, could you share the recorded outcome for COC1=CC(=O)C(=O)C(C(C)(C)C)=C1 when you have a moment?
Outgoing: FALSE

Incoming: Dear colleague, could you share the recorded outcome for O=C(O)c1cc(=O)c2c(OCC(O)COc3cccc4oc(C(=O)O)cc(=O)c34)cccc2o1 when you have a moment?
Outgoing: FALSE

Incoming: Dear colleague, could you share the recorded outcome for O=c1[nH]cnc2c1ncn2[C@H]1CC[C@@H](CO)O1 when you have a moment?
Outgoing: FALSE

Incoming: Dear colleague, could you share the recorded outcome for O=S(=O)(Nc1ccc(Cl)c(Cl)c1)c1cccc2cccnc12 when you have a moment?
Outgoing: FALSE

Incoming: Dear colleague, could you share the recorded outcome for O=c1[nH]c2c(c(=O)n1C1CCCCC1)CCC2 when you have a moment?
Outgoing: FALSE

// provenance: PubChem BioAssay AID1259407
